We begin with a simple list: items and their reported patients with anti-drug antibodies.
# test-method-notes: patients with anti-drug antibodies; higher = more immunogenic
Field: numeric (%). Do not append units.

Answered cases to consult:
unnamed (protein) chain 1: QVTLRESGPALVKPTQTLTLTCTVSGFSLTSYSVHWVRQPPGKGLEWLGVIWASGGTDYNSALMSRLSISKDTSRNQVVLTMTNMDPVDTATYYCARDPPSSLLRLDYWGRGTPVTVSS chain 2: DIVMTQSPDSLAVSLGERATINCKSSQSLLNSGNQKNYLAWYQQKPGQPPKLLIYGASTRESGVPDRFSGSGSGTDFTLTISSLQAEDVAVYYCQNVHSFPFTFGGGTKLEIK; 13
unnamed (protein) chain 1: EVQLVESGGGLVQPGGSLRLSCAASGYVFTDYGMNWVRQAPGKGLEWMGWINTYIGEPIYADSVKGRFTFSLDTSKSTAYLQMNSLRAEDTAVYYCARGYRSYAMDYWGQGTLVTVSS chain 2: DIQMTQSPSSLSASVGDRVTITCKASQNVGTNVAWYQQKPGKAPKALIYSASFLYSGVPYRFSGSGSGTDFTLTISSLQPEDFATYYCQQYNIYPLTFGQGTKVEIK; 8

# next protein below
Inquiry: Item unnamed (protein) chain 1: QVQLVESGGGLVQPGGSLRLSCAASGFTFRSYAMSWVRQAPGKGLEWVSAISGRGDNTYYADSVKGRFTISRDNSKNTLYLQMNSLRAEDTAVYYCAKMTSNAFAFDYWGQGTLVTVSS chain 2: QSVLTQPPSVSGAPGQRVTISCTGSSSNIGAGYGVHWYQQLPGTAPKLLIYGNTNRPSGVPDRFSGFKSGTSASLAITGLQAEDEADYYCQSYDSSLSGWVFGGGTKLTVL has what recorded patients with anti-drug antibodies?
Reply text: 2.9
